Experiment: label from the status in PepcDB records;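 further: failed if final PepcDB status was selected cloned or expressed and not failed if soluble or beyond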
reported.property: protein production

[[record]]
residue_codes = "EAGYEAGTEYLNLDEQPATILDAEHLGIETKEPITIIERLRTANHKPVVYCLDKIAKTYLTCTDYQQSSGSMLEAIKASTNHQIMHAEMDLEAISYEPHISEVLNASPHEGLMLLKVVHYDEKHQPILYSLNYIKSSLVKFTITKSE"
endpoint_result = "not failed"

[[record]]
residue_codes = "MNEYDEECLLTFLKKQSQLFDEPVAETMEEAEAFLEDCMAVVVDSLDEVREYFEESGADVENMLEHHHHHH"
endpoint_result = "not failed"


====

Test: label from the status in PepcDB records
reported.property: protein production

[[record]]
residue_codes = "MIKEFSDPLYGFVRVGEAGLRLIDSFPFQRLRYVKQLGLAYLVFPSAQHTRFEHSLGVYHITERICESLKVKEKELVKLAGLLHDLGHPPFSHTTEVLLPRERSHEDFTERVIKETEIYEILKQDYSHEDIERLVRITLGKPEDEEEKLLSEIITGEFGSDRMDYLRRDAYFCGVSYGFFDYDRLISTLRVYENKVVVDESGLRALENFLISRYFMYVQVYFHKVVRILSIHLVEFLKKLISQEDFTDINNFLRLNDAFVISELFKRKAFREDFERIFQRKHFKTLLSTENYEKFSETKERLLEKFPQEKVRFDEVEKEVYGGNIYVLSSEGLKKAHELSPLIASLKPIKLYRIYVDRQLWEKARSELKLS"
endpoint_result = "not failed"

[[record]]
residue_codes = "MPKITVYTGKEVLQIDAKEGSSLLDILAENSLYVEAPCGGKGICGKCKVAVKKDGKPYLENITKEEKRLLTSDELQKGIRLCCNLKVFESLEVFLPHSKIGAKILSGLYTLEHHHHHH"
endpoint_result = "failed"

[[record]]
residue_codes = "MSEINYSTVQYYLVLILIFIYLSLFVLEKKWPLRKATRPLLPRLAINFTFTLLVYVIASLFISPLAKATVLFTFSHDFGLLSMLPFNQWVVFILGFLLMDLSFYYWHALNHKLPLLWRFHVVHHADPDLDVSTAMRFHCVEIMYSSLFRLVQLGLIGVSPLLFFCYEFFFQAHTFFQHSNIKLPFRFERLINKIIVTPRMHGIHHSNYLNETNSNYGVVFSFWDRLHQTIKLDIPQQAIIIGVPGYSKPSDNSLIRLLLMPIKAQRHYWQIKKDFHFSRKSKTSDKKVRTLCE"
endpoint_result = "failed"

[[record]]
residue_codes = "MHPTIARMQEVVAKGDESLIHALLAEDVRFMPPTYYKTWTGRDPVAAVLGHVGQVFSEFRYRRIMGEGKDWALEFQCKVGELDAVGVDLITLNEGGLIQDFEVVMRPYKTVGALRDAMNARVMTDARFLKYREALS"
endpoint_result = "not failed"

[[record]]
residue_codes = "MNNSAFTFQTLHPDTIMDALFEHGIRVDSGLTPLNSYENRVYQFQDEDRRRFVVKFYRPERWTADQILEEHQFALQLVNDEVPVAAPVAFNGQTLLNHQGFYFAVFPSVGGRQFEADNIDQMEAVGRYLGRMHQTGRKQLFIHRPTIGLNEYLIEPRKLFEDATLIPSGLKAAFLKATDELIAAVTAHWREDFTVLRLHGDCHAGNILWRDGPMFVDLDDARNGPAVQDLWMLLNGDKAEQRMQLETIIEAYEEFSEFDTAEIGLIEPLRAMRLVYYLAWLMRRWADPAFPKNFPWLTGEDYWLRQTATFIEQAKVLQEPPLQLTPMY"
endpoint_result = "not failed"


Next sequence, please.
Prompt: Given the sequence `MSLIDLYDLRMPQRTGTYVLHEENLAIIETGPSPSVPHLLAGLKALHIDPADIRYIIVTHIHLDHAGGVGVLLEHCPNATVIVHPKGKRHLADPSRLIAGAKAVYGEQFDALFDPIVPVPEERLLVKEDGETLVLSAERTLTFYDTPGHANHHFSIYDSYSGGVFTGDTIGVFYPQLQEAGLAFCLPSTSPNQFNPEAMKQSAERLEKLNPTRIYFGHFGALDQPEEAFRQLRFWLPKFVAAGKEVIARHPEAPAAEQAKAVTKLLHNDITAFLNECSIPASSPVYKVIELDLQVCAMGIIDYWRKQRLEHHHHHH` , what is its reported protein production?
Response: failed
